Assay System: Proto-oncogene tyrosine-protein kinase receptor Ret (Homo sapiens)
Sequence (P07949 whole entry): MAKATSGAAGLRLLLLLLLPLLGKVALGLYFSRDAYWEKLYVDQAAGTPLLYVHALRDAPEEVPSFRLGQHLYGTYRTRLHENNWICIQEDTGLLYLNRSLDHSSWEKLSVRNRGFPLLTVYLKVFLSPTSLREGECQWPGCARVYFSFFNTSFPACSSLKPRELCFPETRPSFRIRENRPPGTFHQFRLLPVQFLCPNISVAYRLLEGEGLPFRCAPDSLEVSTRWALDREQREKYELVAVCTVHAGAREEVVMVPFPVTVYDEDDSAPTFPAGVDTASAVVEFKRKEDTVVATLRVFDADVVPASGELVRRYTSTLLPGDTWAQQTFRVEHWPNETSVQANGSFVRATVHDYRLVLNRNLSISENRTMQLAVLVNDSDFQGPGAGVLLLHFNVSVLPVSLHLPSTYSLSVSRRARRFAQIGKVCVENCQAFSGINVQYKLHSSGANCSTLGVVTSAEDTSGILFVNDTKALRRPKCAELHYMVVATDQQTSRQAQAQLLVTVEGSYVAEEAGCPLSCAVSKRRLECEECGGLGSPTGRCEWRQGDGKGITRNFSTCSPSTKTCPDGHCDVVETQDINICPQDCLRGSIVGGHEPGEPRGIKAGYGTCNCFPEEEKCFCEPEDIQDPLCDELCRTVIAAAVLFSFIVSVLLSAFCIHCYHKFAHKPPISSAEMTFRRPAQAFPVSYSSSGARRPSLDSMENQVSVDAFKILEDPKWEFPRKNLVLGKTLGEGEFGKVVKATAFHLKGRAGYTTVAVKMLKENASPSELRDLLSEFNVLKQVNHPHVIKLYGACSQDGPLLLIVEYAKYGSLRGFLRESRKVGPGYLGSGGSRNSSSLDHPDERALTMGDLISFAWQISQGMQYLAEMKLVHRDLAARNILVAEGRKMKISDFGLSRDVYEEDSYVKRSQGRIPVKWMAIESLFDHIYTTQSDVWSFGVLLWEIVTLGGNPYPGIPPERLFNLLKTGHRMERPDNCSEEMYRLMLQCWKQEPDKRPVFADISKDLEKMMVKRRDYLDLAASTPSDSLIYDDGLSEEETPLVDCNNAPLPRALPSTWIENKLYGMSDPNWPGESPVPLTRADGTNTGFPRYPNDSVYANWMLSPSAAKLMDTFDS
Test Details: Sci. USA 1988, 85(23), 9312). Specific steps were as follows: The compound of the present invention was dissolved in dimethyl sulfoxide (DMSO) to make a stock solution of 2 mM, then the stock solution was diluted with DMSO following a 7 half-log series to concentrations ranging from 2 uM to 600 pM.
Format: cell-based
pIC50: −log10 of the molar value.
Measured Quantity: pIC50

{"columns": ["Structure", "Assay System", "Endpoint Value"],
 "data": [
  ["COc1cc2c(Oc3ccc(NC(=O)C4(C(=O)Nc5ccc(F)cc5)CC4)cc3F)ccnc2cc1OCCCC(=O)NO", "Proto-oncogene tyrosine-protein kinase receptor Ret (Homo sapiens)", 6.81]
]}

The reported measurements were obtained from ChEMBL document CHEMBL3886358.
